System: EKVX
Assay: NCI tumour cell line growth inhibition, 48 h
Active and inactive are the calls of the source. Rule as the data show it: active = GI50 up to about 1.1 µM and inactive = higher.
Possible outcomes: active, inactive

| molecule | target | classification |
| --- | --- | --- |
| COc1ccc(/C=C/C(=O)C(C)(C)CN2CCCCC2)cc1 | EKVX | inactive |
| C/C=C/C=C/C1=NN(c2cccc(S(=O)(=O)O)c2)C2(C1)C(Cl)C(=O)N2c1nc2ccccc2s1 (stereo not given) | EKVX | inactive |
| CCN(C(C)=N)c1ccccc1 | EKVX | inactive |
| Nc1ccc(Cc2ccc(N)c(C(=O)O)c2)cc1C(=O)O | EKVX | inactive |
| C[C@H](N)C(=O)N[C@@H]1[C@H]2C(=C(O)C[C@@H](O)[C@@H]2O)C(=O)O[C@]1(C)C(Cl)Cl | EKVX | active |
| Cc1[nH]c2ccccc2c1C1Cc2ccccc2N1C(=O)/C(Cl)=C/c1ccccc1 (stereo not given) | EKVX | inactive |
| Clc1ccccc1C(c1ccccc1)(c1ccccc1)n1ccnc1 | EKVX | inactive |
| [O-]/[N+](=C\c1ccccc1)[C@H](COCc1ccccc1)c1ccccc1 | EKVX | inactive |
| COc1c(C=O)c2c(c(OC)c1OC)-c1ccc(OC)c(=O)cc1[C@@H](NC(C)=O)CC2 | EKVX | inactive |
| COC(=O)C1CC23CCCN4CCC5(c6ccccc6N(C=O)C15CC2)C43 (stereo not given) | EKVX | inactive |

###

Overview of recorded GI50 for various molecules
Tested on: DLD-1
Experiment: NCI tumour cell line growth inhibition, 48 h
Activity calls are given as the source filed them. Cut-off read from the data, not from the text of the source: active = GI50 up to about 1.1 µM and inactive = higher.
measured endpoint: GI50

| molecule | result |
| --- | --- |
| CCCCOC(=O)CN1C(=O)c2ccccc2C1=O | > 100 µM (inactive) |
| [O-][S+]1Nc2cccc(C(F)(F)F)c2S1 (centres undefined) | 34.4 µM (inactive) |
| COc1ccc(C2S/C(=C\c3cccc([N+](=O)[O-])c3)C(=O)N2NC(=O)Cc2ccccc2)cc1 (centres undefined) | > 100 µM (inactive) |
| N#CC(C#N)=C(N)/C(C#N)=C/c1ccc(O)c(O)c1 | 71.3 µM (inactive) |
| CSc1nc2c(nc(N)n2C2OC(COC(C)=O)C(OC(C)=O)C(OC(C)=O)C2OC(C)=O)c(=O)n1C (centres undefined) | > 100 µM (inactive) |
| COC(=O)C1=C(C(=O)OC)C2C=CC1C1C(Cl)=C(Cl)C21 (centres undefined) | > 100 µM (inactive) |
| CN(C)CCNC(=O)c1cccc2nc3c(Cl)cccc3nc12 | 4.43 µM (inactive) |
| O=c1nc2sc3ccc4ccccc4c3n2nc1-c1ccccc1 | 35.6 µM (inactive) |
| CC(=O)N(C)c1ccc2c(ccc[n+]2[O-])c1[N+](=O)[O-] | > 100 µM (inactive) |

###

Test system: DU-145
Assay: NCI tumour cell line growth inhibition, 48 h
The source made the active and inactive calls. Cut-off read from the data, not from the text of the source: active = GI50 up to about 1.1 µM and inactive = higher.
Overview of recorded GI50 for various compounds

| compound | GI50 |
| --- | --- |
| Cc1cc(=O)oc2cc(O)c(CN(C)CC(=O)O)cc12 | > 100 µM (inactive) |
| CC(=O)Nc1nc(C)c(S(=O)(=O)NC(=O)N2c3ccccc3CCc3ccccc32)s1 | > 100 µM (inactive) |
| CC(=O)N(CN1C(=O)CCC1C(=O)O)c1ccccc1 (stereo unspecified) | > 61.4 µM (inactive) |
| CCCN(CCc1ccc(-c2ccccc2)cc1)CCc1ccc2nn[nH]c2c1 | 9.25 µM (inactive) |
| COc1cc(C2c3cc4c(cc3C(O)C3CCC(=O)N23)OCO4)cc(OC)c1OC (stereo unspecified) | 51.8 µM (inactive) |
| S=C=NCc1ccccc1 [BENZYL ISOTHIOCYANATE] | 4.13 µM (inactive) |
| Cn1c(-c2ccc(C=O)o2)ccc1-c1ccc(C=O)o1 | 49.4 µM (inactive) |
| C=C(C)C(O)C(O)c1c(OC)ccc2ccc(=O)oc12 (stereo unspecified) | > 100 µM (inactive) |
| NC(=O)c1ccc(NCC2=CC(=O)C=CC2=O)cc1 | > 100 µM (inactive) |
| C=CCNS(=O)(=O)c1ncnc2[nH]cnc12 | > 100 µM (inactive) |
| CC1(C)CC2=NO[Se]3=C2C(=NO3)C1 | 3.83 µM (inactive) |
